Where do the numbers come from? From patent US20230405023A1.

# MEASUREMENT_DESCRIPTION: Open-label randomized pharmacokinetic drug-drug interaction study: plasma PK of Compound A alone or with phenytoin
# Type: in vivo, human
# ASSAY_CONDITIONS: human, plasma, oral; Compound A 100 mg + phenytoin 100 mg TID x 10 days; read-out: mean AUC0-inf
QUANTITY_NAME: AUC(0-inf)

Please fill in: AUC(0-inf) reported for Cc1cc(S(=O)(=O)Nc2cscn2)c(F)cc1N(C)[C@H]1CCN(Cc2ccccc2)C1 = 18000 ng·h/mL

---

# MEASUREMENT_DESCRIPTION: Open-label randomized pharmacokinetic drug-drug interaction study: plasma PK of Compound A alone or with phenytoin
# Assay type: in vivo, human
# ASSAY_CONDITIONS: human, plasma, oral, 100 mg, Compound A with phenytoin 100 mg TID x 10 days, truncated sampling; read-out: Cmax
QUANTITY_NAME: Cmax (ng/mL)
Give the number; ng/mL is assumed, so skip it.

Cc1cc(S(=O)(=O)Nc2cscn2)c(F)cc1N(C)[C@H]1CCN(Cc2ccccc2)C1 yielded Cmax of 3680
